Field 'label' (enum: y / n). Set to y when boiling point is strictly under 200 °C; else n.

CCBr ... y

Does the reported boiling point of C=C(C)C1CC=C(CO)CC1 (centres undefined) stay below 200 °C?
n

Ok, now CC(=O)C(C)(C)C
y

# repeat for CCOC(=O)C(CC)(CC)C(=O)OCC
n

Also, CC(Br)CBr (centres undefined) please.
y

Field entry: N#C/C=C(\Cl)C#N
y

Record: Cc1ccc(N)cc1C
n

Same lookup for COC(=O)C=C(Cl)C(=O)OC , please.
n

Another compound: CCC(=O)c1ccc2ccccc2c1
n

====

Measurement name: boiling point (°C)
Give just the numeric value; °C need not be written.

c1ccc(N(c2ccccc2)c2ccccc2)cc1 ... 365
O=Cc1ccc(C=O)cc1 ... 246
COCOC ... 42

Would you mind telling me what boiling point value was observed for Cc1cc(C)n(-c2ccccc2)n1 ?
273

====

Documented log10 BCF across a set of compounds
Details: fish

CC(C)NC(=O)N1CC(=O)N(c2cc(Cl)cc(Cl)c2)C1=O ... 2.53
COc1cc(Cl)c(Cl)cc1Cl ... 2.81
CC1(C)[C@H](C(=O)OCc2cccc(Oc3ccccc3)c2)[C@@H]1C=C(Cl)Cl (single isomer, unassigned) ... 2.65
COc1cc(Cl)c(Cl)c(Cl)c1O ... 1.97
c1ccc(Nc2ccc3ccccc3c2)cc1 ... 2.37
Nc1ccc(Cl)c(Cl)c1Cl ... 2

// returns reported log10 BCF for input Cc1ccc2ccccc2c1
1.87

====

melting point overview
Entry rule: numbers only, all in °C.

Clc1ccc(Cl)c2ncccc12 ... 97.5
CC(=O)CC(C)=O ... -23
CCN(CCO)CCCC(C)Nc1ccnc2cc(Cl)ccc12 (stereo not drawn) ... 90
CCCOC(=O)c1ccccc1 ... -51.6
CCC(=O)Nc1ccccc1 ... 106
O=C(Cl)CCl ... -22
COC(=O)NS(=O)(=O)c1ccc(N)cc1 ... 144
Cc1n[nH]c(C)c1Cl ... 118

Form field: reported melting point of COc1cc(O)cc(O)c1
80.3

====

Measurement name: melting point

Field: example entries. Status: answers known.
CCCCCCN(CCCCCC)C(=O)COC(=O)c1ccccc1 ... 162 °C
CN1CC[C@]23c4c5ccc(OCc6ccccc6)c4O[C@H]2[C@@H](O)C=C[C@H]3[C@H]1C5 ... 132 °C
CCCCSP(SCCCC)SCCCC ... 100 °C
O=C(F)c1ccccc1 ... -28 °C

As a next step, examine the compound that follows.
Entry COCCOC1=C(N2CC2)C(=O)C(OCCOC)=C(N2CC2)C1=O : reported melting point = ?
80 °C

====

Known melting point of a selection of compounds
Quick note: give the figure in °C, leave out the unit.

# example entries with known answers
CCC1(C)CC1 ... -130
COc1ccccc1CC#N ... 69.8
O=[N+]([O-])CC(O)C(Cl)(Cl)Cl (stereo not drawn) ... 45.5
FC(F)(Cl)C(Cl)(Cl)Cl ... 40.6

Suppose we examine the compound COC(=O)COc1ccccc1 ; what melting point value has been reported?
245

====

boiling point overview
The reply should be a number in °C, with the unit left off.

Worked cases, answers included:
FC(F)OC(F)(F)C(F)Cl (configuration not stated) ... 56.5
O=Cc1c(F)c(F)c(F)c(F)c1F ... 167
OCCCc1ccccc1 ... 235
CC(C)OC(C)(C)C ... 87.6
CC(=O)Nc1ccc(Cl)cc1 ... 333

Value lookup for boiling point; key = O=CN1CCOCC1
239

Same question, Cc1cccc2ccoc12 this time
190
